Values compiled from patent US20250243180A1.

Molecular target: NEK7 (Homo sapiens (Human), UniProt Q8TDX7+Q96SW2)
Sequence (Q8TDX7 whole entry): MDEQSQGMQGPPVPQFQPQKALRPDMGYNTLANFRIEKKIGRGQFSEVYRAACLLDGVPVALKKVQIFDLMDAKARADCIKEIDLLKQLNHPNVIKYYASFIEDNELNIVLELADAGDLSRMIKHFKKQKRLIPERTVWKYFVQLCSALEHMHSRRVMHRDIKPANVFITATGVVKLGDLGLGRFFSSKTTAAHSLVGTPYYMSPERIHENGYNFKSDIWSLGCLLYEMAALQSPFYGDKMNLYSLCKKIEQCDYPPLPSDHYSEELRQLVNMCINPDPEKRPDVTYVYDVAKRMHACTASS
Sequence (Q96SW2 whole entry): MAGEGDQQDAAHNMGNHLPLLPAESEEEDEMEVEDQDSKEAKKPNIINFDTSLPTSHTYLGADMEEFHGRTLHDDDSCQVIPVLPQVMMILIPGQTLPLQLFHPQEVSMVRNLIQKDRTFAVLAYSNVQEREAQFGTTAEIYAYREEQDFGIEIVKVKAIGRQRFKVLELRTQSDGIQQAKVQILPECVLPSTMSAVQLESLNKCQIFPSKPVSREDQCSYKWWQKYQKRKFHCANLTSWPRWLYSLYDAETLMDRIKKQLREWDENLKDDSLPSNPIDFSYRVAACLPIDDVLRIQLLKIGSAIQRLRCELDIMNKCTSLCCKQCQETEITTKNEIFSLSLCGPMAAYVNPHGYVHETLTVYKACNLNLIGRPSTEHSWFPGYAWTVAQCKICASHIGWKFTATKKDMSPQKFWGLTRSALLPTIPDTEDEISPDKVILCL
Sequence (Q16531 2-1140 partner): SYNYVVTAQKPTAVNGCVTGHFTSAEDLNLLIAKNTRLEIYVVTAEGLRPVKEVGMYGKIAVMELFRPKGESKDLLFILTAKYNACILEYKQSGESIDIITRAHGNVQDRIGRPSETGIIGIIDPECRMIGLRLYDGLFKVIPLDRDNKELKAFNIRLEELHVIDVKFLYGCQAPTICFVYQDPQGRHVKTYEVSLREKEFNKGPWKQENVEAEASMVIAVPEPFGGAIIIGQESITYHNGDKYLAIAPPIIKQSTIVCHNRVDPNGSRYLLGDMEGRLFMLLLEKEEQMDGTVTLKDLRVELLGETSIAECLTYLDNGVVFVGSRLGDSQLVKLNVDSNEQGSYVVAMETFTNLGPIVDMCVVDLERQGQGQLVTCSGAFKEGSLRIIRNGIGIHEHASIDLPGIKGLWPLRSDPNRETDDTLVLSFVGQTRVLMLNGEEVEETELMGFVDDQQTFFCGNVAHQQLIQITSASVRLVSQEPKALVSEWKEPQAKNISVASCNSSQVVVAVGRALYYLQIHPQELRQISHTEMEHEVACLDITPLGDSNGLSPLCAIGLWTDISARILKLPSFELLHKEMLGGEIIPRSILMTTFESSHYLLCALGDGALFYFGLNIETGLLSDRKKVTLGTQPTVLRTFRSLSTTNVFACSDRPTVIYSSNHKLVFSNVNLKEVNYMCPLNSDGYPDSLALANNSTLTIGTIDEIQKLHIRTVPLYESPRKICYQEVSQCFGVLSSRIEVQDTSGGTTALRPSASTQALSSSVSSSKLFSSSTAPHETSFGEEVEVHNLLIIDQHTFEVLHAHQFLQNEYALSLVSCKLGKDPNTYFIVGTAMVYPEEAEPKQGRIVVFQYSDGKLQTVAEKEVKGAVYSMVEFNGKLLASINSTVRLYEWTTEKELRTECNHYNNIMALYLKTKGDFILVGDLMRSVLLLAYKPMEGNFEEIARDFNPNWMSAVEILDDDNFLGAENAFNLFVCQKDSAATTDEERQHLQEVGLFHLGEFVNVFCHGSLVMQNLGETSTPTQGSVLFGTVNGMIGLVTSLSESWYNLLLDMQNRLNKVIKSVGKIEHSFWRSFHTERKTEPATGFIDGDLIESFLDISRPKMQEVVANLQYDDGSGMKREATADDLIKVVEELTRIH
Test: NEK7 NanoBiT degradation assay in Cal51 NEK7 NanoBiT cell line
Type: cell-based
Conditions: CAL-51; Cal51 NEK7 NanoBiT cells, 24 hours; read-out: NEK7 NanoBiT Dmax
Readout type: Dmax (%)
Write the answer as a number in %, unit excluded.

Here are 3 compounds together with their reported answers.
INSERT INTO measurements (compound, readout_type, units_of_measure, observed_measurement) VALUES
  ('CC(C)(C(=O)NCc1cc(Cl)c(C2CCC(=O)NC2=O)c(Cl)c1)c1ncc(CO)cn1 (stereo not drawn)', 'Dmax', '%', 82),
  ('CC(C)(C(=O)NCc1cc(Cl)c(C2CCC(=O)NC2=O)c(Cl)c1)c1ccc2[nH]c(=O)oc2c1 (stereo not drawn)', 'Dmax', '%', 95),
  ('Cn1ccc(C(C)(C)C(=O)NCc2cc(Cl)c(C3CCC(=O)NC3=O)c(Cl)c2)cc1=O (stereo not drawn)', 'Dmax', '%', 92);

-- ask # returns recorded Dmax (system: NEK7 (Homo sapiens (Human), UniProt Q8TDX7+Q96SW2)) for CC(C)(C(=O)NCc1cc(Cl)c(C2CCC(=O)NC2=O)c(Cl)c1)c1ccc(S(C)(=O)=O)cc1 (stereo not drawn)
-- reply 96

-- ask # returns recorded Dmax (system: NEK7 (Homo sapiens (Human), UniProt Q8TDX7+Q96SW2)) for Cc1cnc(C(C)(C)C(=O)NCc2cc(Cl)c([C@]3(F)CCC(=O)NC3=O)c(Cl)c2)nc1 (single isomer, unassigned)
-- reply 9

-- ask # returns recorded Dmax (system: NEK7 (Homo sapiens (Human), UniProt Q8TDX7+Q96SW2)) for COc1ccc(C(C)(C)C(=O)NCc2cc(F)c(C3CCC(=O)NC3=O)c(Cl)c2)nn1 (stereo not drawn)
-- reply 88

-- ask # returns recorded Dmax (system: NEK7 (Homo sapiens (Human), UniProt Q8TDX7+Q96SW2)) for CC(C)(C(=O)NCc1ccc(C2CCC(=O)NC2=O)c(Cl)c1)c1cccc(F)c1 (stereo not drawn)
-- reply 87

----------
Target: UniProtKB Q96SW2
Assay: Compound binding to CRBN by HTRF assay
Details: HTRF class; Cereblon binding
pEC50: −log10 of the molar value.
Readout type: pEC50

INSERT INTO measurements (molecule, observed_measurement) VALUES
  ('CC(C)(C(=O)NCc1cc(Cl)c(C2CCC(=O)NC2=O)c(Cl)c1)c1ncncc1F (centres unmarked)', '6.00 to 7.00'),
  ('CC(C)(C(=O)NCc1ccc(C2CCC(=O)NC2=O)c(Cl)c1)c1ccncc1 (centres unmarked)', '6.00 to 7.00'),
  ('CC(C)(C(=O)NCc1ccc(C2CCC(=O)NC2=O)c(Cl)c1)c1ccc(F)cc1 (centres unmarked)', '6.00 to 7.00'),
  ('CC(C)(C(=O)NCc1cc(Cl)c(C2CCC(=O)NC2=O)c(Cl)c1)c1ccc(OC(F)F)nn1 (centres unmarked)', '6.00 to 7.00'),
  ('COc1cc(C(C)(C)C(=O)NCc2cc(Cl)c(C3CCC(=O)NC3=O)c(Cl)c2)ccn1 (centres unmarked)', '6.00 to 7.00');

-- ask # returns recorded pEC50 (system: UniProtKB Q96SW2) for CC(C)(C(=O)NCc1cc(Cl)c(C2CCC(=O)NC2=O)c(Cl)c1)N1CCc2ccccc21 (centres unmarked)
-- reply ≥ 7.00

-- ask # returns recorded pEC50 (system: UniProtKB Q96SW2) for CC(C)(C(=O)NCc1cc(Cl)c(C2CCC(=O)NC2=O)c(Cl)c1)c1ccc2ncoc2c1 (centres unmarked)
-- reply ≥ 7.00

-- ask # returns recorded pEC50 (system: UniProtKB Q96SW2) for CC(C)(C(=O)NCc1cc(Cl)c(C2CCC(=O)NC2=O)c(Cl)c1)c1ccc2cnncc2c1 (centres unmarked)
-- reply 6.00 to 7.00

----------
Assay: Plasma concentration in NHP, multiple-dose study 5 mg/kg oral
Assay type: in vivo, cynomolgus monkeys
Conditions: both sexes, cynomolgus monkey, Day 1, 6 h post final dose
Readout type: concentration at 6 h (ng/mL)
Write the answer as a number in ng/mL, unit excluded.

-- ask Which concentration at 6 h value belongs to Cc1cnc(C(C)(C)C(=O)NCc2cc(Cl)c(C3CCC(=O)NC3=O)c(Cl)c2)nc1 (stereo not shown) [Compound 14] ?
-- reply 5.4

----------
Target: CRBN-DDB1 (Homo sapiens (Human), UniProt Q96SW2)
Sequence (Q96SW2 whole entry): as the sequence (Q96SW2 whole entry) above
Sequence (Q16531 whole entry partner): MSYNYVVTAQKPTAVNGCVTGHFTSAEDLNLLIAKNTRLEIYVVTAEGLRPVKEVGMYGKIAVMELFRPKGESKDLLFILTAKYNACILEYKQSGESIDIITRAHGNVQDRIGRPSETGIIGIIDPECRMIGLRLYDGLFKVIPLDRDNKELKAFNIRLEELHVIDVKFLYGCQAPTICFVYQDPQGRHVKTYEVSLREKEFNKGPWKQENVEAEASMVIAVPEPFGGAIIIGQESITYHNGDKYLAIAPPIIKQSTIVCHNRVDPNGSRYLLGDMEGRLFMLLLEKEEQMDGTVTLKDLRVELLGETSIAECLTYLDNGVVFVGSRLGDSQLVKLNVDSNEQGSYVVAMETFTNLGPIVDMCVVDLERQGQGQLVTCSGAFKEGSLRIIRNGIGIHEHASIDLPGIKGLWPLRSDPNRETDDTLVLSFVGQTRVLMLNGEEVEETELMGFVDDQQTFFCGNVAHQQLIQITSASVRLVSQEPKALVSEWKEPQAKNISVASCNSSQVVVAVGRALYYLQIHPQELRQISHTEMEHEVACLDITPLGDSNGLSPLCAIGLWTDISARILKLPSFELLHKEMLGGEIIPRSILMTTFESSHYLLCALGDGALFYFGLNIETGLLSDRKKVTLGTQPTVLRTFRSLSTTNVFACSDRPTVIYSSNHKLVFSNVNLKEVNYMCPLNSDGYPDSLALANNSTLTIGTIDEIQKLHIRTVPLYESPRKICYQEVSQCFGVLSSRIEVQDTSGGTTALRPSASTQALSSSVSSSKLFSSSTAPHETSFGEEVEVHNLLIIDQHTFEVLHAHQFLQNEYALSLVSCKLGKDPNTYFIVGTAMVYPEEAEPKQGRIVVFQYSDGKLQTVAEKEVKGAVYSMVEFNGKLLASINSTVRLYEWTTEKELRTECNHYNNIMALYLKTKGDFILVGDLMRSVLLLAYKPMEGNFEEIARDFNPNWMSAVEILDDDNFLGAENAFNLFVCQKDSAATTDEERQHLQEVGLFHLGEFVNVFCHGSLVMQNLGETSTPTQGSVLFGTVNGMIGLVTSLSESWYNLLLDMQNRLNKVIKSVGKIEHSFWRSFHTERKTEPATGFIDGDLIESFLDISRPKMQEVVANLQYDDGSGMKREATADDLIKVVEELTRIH
Assay: Compound binding to CRBN by HTRF assay
Readout type: pEC50
Reminder that pEC50 is minus the log10 of a molar concentration.

Here are 6 compounds together with their reported answers.
INSERT INTO results (compound, observed_measurement) VALUES
  ('CC(C)(C(=O)NCc1cc(Cl)c(C2CCC(=O)NC2=O)c(Cl)c1)c1cnc(C#N)nc1 (centres unmarked)', 6.70),
  ('Cc1conc1C(C)(C)C(=O)NCc1cc(Cl)c(C2CCC(=O)NC2=O)c(Cl)c1 (centres unmarked)', 6.85),
  ('O=C1CCC(c2c(Cl)cc(CNC(=O)C3(c4ccc(F)cc4)CCOCC3)cc2Cl)C(=O)N1 (centres unmarked)', 7.30),
  ('CC(C)(C(=O)NCc1cc(Cl)c(C2CCC(=O)NC2=O)c(Cl)c1)c1ccc2ncsc2c1 (centres unmarked)', 7.52),
  ('Cc1cc(C(C)(C)C(=O)NCc2cc(Cl)c(C3CCC(=O)NC3=O)c(Cl)c2)ccn1 (centres unmarked)', 7.00),
  ('Cn1ncc2ccc(C3(C(=O)NCc4cc(Cl)c(C5CCC(=O)NC5=O)c(Cl)c4)CCOCC3)cc21 (centres unmarked)', 7.52);

-- ask Which pEC50 value belongs to CC(C)(C(=O)NCc1cc(Cl)c(C2CCC(=O)NC2=O)c(Cl)c1)N1CCc2ccccc21 (centres unmarked) ?
-- reply 7.05

-- ask Which pEC50 value belongs to CC(C)(C(=O)NCc1cc(Cl)c(C2CCC(=O)NC2=O)c(Cl)c1)c1c(F)cncc1F (centres unmarked) ?
-- reply 7.05

----------
Target: NEK7 (Homo sapiens (Human), UniProt Q8TDX7+Q96SW2)
Assay: NEK7 NanoBiT degradation assay in Cal51 NEK7 NanoBiT cell line
Format: cell-based
Details: CAL-51; Cal51 NEK7 NanoBiT cells, 24 hours; read-out: NEK7 NanoBiT Dmax
Measured Dmax accompanies every entry in the list below.
Write the answer as a number in %, unit excluded.

Here are 3 compounds together with their reported answers.
INSERT INTO assay_data (compound, observed_measurement) VALUES
  ('CC(C)(C(=O)NCc1cc(Cl)c(C2CCC(=O)NC2=O)c(Cl)c1)c1ccc2ncsc2c1 (stereo not shown)', 97),
  ('CC(C)(C(=O)NCc1cc(Cl)c(C2CCC(=O)NC2=O)c(Cl)c1)c1ccncc1F (stereo not shown)', 93),
  ('CC(C)(C(=O)NCc1cc(Cl)c(C2CCC(=O)NC2=O)c(Cl)c1)c1cccc(S(C)(=O)=O)c1 (stereo not shown)', 96);

// moving on: another record for Dmax
-- ask Which Dmax value belongs to Cn1ncc2ccc(C(C)(C)C(=O)NCc3cc(Cl)c(C4CCC(=O)NC4=O)c(Cl)c3)cc21 (stereo not shown) ?
-- reply 97

----------
Target: CRBN-DDB1 (Homo sapiens (Human), UniProt Q96SW2)
Assay: Compound binding to CRBN by HTRF assay
Readout type: pEC50
Reminder that pEC50 is minus the log10 of a molar concentration.

Here are 5 compounds together with their reported answers.
INSERT INTO measurements (compound, readout_type, observed_measurement) VALUES
  ('Cc1cncnc1C(C)(C)C(=O)NCc1cc(Cl)c(C2CCC(=O)NC2=O)c(Cl)c1 (stereo not shown) [Compound 158]', 'pEC50', 6.49),
  ('CC(C)(C(=O)NCc1cc(Cl)c(C2CCC(=O)NC2=O)c(Cl)c1)c1cc(C2CC2)ncn1 (stereo not shown) [Compound 151]', 'pEC50', 6.32),
  ('CC(C)(C(=O)NCc1cc(Cl)c(C2CCC(=O)NC2=O)c(Cl)c1)c1ccc2ncoc2c1 (stereo not shown) [Compound 10]', 'pEC50', 7.22),
  ('Cc1cnc(C(C)(C)C(=O)NCc2cc(Cl)c(C3CCC(=O)NC3=O)c(Cl)c2)nc1 (stereo not shown) [Compound 14]', 'pEC50', 6.96),
  ('CN(C)S(=O)(=O)c1ccc(C(C)(C)C(=O)NCc2cc(Cl)c(C3CCC(=O)NC3=O)c(Cl)c2)cc1 (stereo not shown) [Compound 58]', 'pEC50', 6.89);

-- ask Which pEC50 value belongs to CC(C)(C(=O)NCc1cc(Cl)c(C2CCC(=O)NC2=O)c(Cl)c1)c1cnc(C(F)F)cn1 (stereo not shown) [Compound 196] ?
-- reply 6.51

-- ask Which pEC50 value belongs to COCCc1cnc(C(C)(C)C(=O)NCc2cc(Cl)c(C3CCC(=O)NC3=O)c(Cl)c2)nc1 (stereo not shown) [Compound 245] ?
-- reply 6.80

-- ask Which pEC50 value belongs to CC(C)(C(=O)NCc1cc(Cl)c(C2CCC(=O)NC2=O)c(Cl)c1)c1nocc1C(F)(F)F (stereo not shown) [Compound 220] ?
-- reply 6.82

-- ask Which pEC50 value belongs to CC(C)(C(=O)NCc1cc(F)c(C2CCC(=O)NC2=O)c(Cl)c1)c1cc(F)ccn1 (stereo not shown) [Compound 260] ?
-- reply 6.96

-- ask Which pEC50 value belongs to CC(C)(C(=O)NCc1cc(Cl)c(C2CCC(=O)NC2=O)c(Cl)c1)c1ncc(OC(F)(F)F)cn1 (stereo not shown) [Compound 229] ?
-- reply 6.92

-- ask Which pEC50 value belongs to CC(C)(C(=O)NCc1ccc(C2CCC(=O)NC2=O)c(Cl)c1)c1nc2ccccc2o1 (stereo not shown) [Compound 246] ?
-- reply 6.74

-- ask Which pEC50 value belongs to CC(C)(C(=O)NCc1cc(Cl)c(C2CCC(=O)NC2=O)c(Cl)c1)c1ncc(C(F)(F)F)cn1 (stereo not shown) [Compound 175] ?
-- reply 6.55

-- ask Which pEC50 value belongs to COc1cnc(C(C)(C)C(=O)NCc2cc(F)c(C3CCC(=O)NC3=O)c(Cl)c2)nc1 (stereo not shown) [Compound 256] ?
-- reply 7.10

-- ask Which pEC50 value belongs to CC(C)(C(=O)NCc1cc(Cl)c(C2CCC(=O)NC2=O)c(Cl)c1)c1ncc(CO)cn1 (stereo not shown) [Compound 231] ?
-- reply 6.85

-- ask Which pEC50 value belongs to Cc1ncc(C(C)(C)C(=O)NCc2cc(F)c(C3CCC(=O)NC3=O)c(Cl)c2)o1 (stereo not shown) [Compound 281] ?
-- reply 6.59

-- ask Which pEC50 value belongs to Cc1cnc(C(C)(C)C(=O)NCc2cc(Cl)c([C@@]3(F)CCC(=O)NC3=O)c(Cl)c2)nc1 (single isomer, unassigned) [Compound 244] ?
-- reply 6.66
